Where do these numbers come from? They come from ChEMBL document CHEMBL5376018.

system: H1-HeLa; assay: cells; details: Homo sapiens, 1 h
quantity-measured: CC50

1) COc1ccc(-c2sc(NC(=O)C(C)(C)C)nc2C)cc1S(=O)(=O)NCCN1CCOCC1	> 20 µM
2) COc1ccc(-c2sc(NC(=O)C(C)(C)C)nc2C)cc1S(=O)(=O)CCc1ccncc1	12.5 µM
3) CC(=O)Nc1nc(C)c(-c2ccc(Cl)c(S(=O)(=O)NCCO)c2)s1	15.8 µM
4) COCCNS(=O)(=O)c1cc(-c2sc(NC(=O)C(C)(C)C)nc2C)ccc1OC	> 20 µM
5) COc1ccc(-c2sc(NC(C)=O)nc2C)cc1S(=O)(=O)CCN1CCOCC1	> 20 µM
6) COc1ccc(-c2sc(NC(C)=O)nc2C)cc1	> 20 µM
7) CCOC(=O)/C=C/[C@H](C[C@@H]1CCNC1=O)NC(=O)[C@@H](CC(=O)[C@@H](NC(=O)c1cc(C)on1)C(C)C)Cc1ccc(F)cc1	> 100 µM
8) COc1ccc(-c2sc(NC(=O)C(C)(C)C)nc2C)cc1S(=O)(=O)NCc1cccc(S(C)(=O)=O)c1	> 20 µM
9) COc1ccc(-c2sc(NC(=O)C(C)(C)C)nc2C)cc1S(=O)(=O)NCCNC(C)=O	> 20 µM

---

assay: Selectivity index, ratio of CC50 for cytotoxicity against human H1-HeLa cells infected with 1 MOI human rhinovirus 16 to EC50 for antiviral activity against Human rhinovirus 16 infected in human H1-HeLa cells; assay type: toxicity, cell-based; conditions: H1-HeLa cells infected with human rhinovirus 16, read-out: Ratio CC50/EC50
selectivity ratio for assorted molecules
quantity-measured: selectivity ratio

1. COc1ccc(-c2sc(NC(=O)C(C)(C)C)nc2C)cc1S(=O)(=O)NCc1cccc(S(C)(=O)=O)c1	> 10
2. COc1ccc(-c2sc(NC(=O)C(C)(C)C)nc2C)cc1S(=O)(=O)NCCNC(C)=O	> 6
3. COc1ccc(-c2sc(NC(C)=O)nc2C)cc1	> 2
4. COc1ccc(-c2sc(NC(=O)C(C)(C)C)nc2C)cc1S(=O)(=O)NCCN1CCOCC1	> 36
5. CC(=O)Nc1nc(C)c(-c2ccc(Cl)c(S(=O)(=O)NCCO)c2)s1	19
6. COc1ccc(-c2sc(NC(=O)C(C)(C)C)nc2C)cc1S(=O)(=O)CCc1ccncc1	> 13
7. COCCNS(=O)(=O)c1cc(-c2sc(NC(=O)C(C)(C)C)nc2C)ccc1OC	> 25
8. COc1ccc(-c2sc(NC(C)=O)nc2C)cc1S(=O)(=O)CCN1CCOCC1	> 15

---

test: Selectivity index, ratio of CC50 for cytotoxicity against human H1-HeLa cells infected with 1 MOI human rhinovirus 14 to EC50 for antiviral activity against Human rhinovirus 14 infected in human H1-HeLa cells; format: toxicity, cell-based; conditions: H1-HeLa cells infected with human rhinovirus 14, read-out: Ratio CC50/EC50
quantity-measured: selectivity ratio

1. COc1ccc(-c2sc(NC(=O)C(C)(C)C)nc2C)cc1S(=O)(=O)CCc1ccncc1	> 10
2. COc1ccc(-c2sc(NC(=O)C(C)(C)C)nc2C)cc1S(=O)(=O)NCc1cccc(S(C)(=O)=O)c1	> 5
3. CC(=O)Nc1nc(C)c(-c2ccc(Cl)c(S(=O)(=O)NCCO)c2)s1	21
4. COc1ccc(-c2sc(NC(C)=O)nc2C)cc1S(=O)(=O)CCN1CCOCC1	> 14
5. COc1ccc(-c2sc(NC(C)=O)nc2C)cc1	> 1
6. COc1ccc(-c2sc(NC(=O)C(C)(C)C)nc2C)cc1S(=O)(=O)NCCNC(C)=O	> 5
7. COCCNS(=O)(=O)c1cc(-c2sc(NC(=O)C(C)(C)C)nc2C)ccc1OC	> 15
8. COc1ccc(-c2sc(NC(=O)C(C)(C)C)nc2C)cc1S(=O)(=O)NCCN1CCOCC1	> 20
